The values you see were collected from PubChem BioAssay AID1963835.

tested on: 699152-130-R-J1-PDC complex spheroid viability; test: Anticancer human tumor 699152-130-R-J1-PDC patient-derived pancreatic carcinoma cell line growth inhibition [POLQ]; conditions: curve of first compound; second compound 1 µM
observable: IC50 (nM)
Hi! Could you send only the number? It should be in nM, unit omitted.

Look up IC50 with 699152-130-R-J1-PDC complex spheroid viability for this molecule: CCc1c2c(nc3ccc(O)cc13)-c1cc3c(c(=O)n1C2)COC(=O)[C@]3(O)CC + COC1C(OC(N)=O)C(O)C(Oc2ccc3c(O)c(NC(=O)c4ccc(O)c(CC=C(C)C)c4)c(=O)oc3c2C)OC1(C)C 40.5

Look up IC50 with 699152-130-R-J1-PDC complex spheroid viability for this molecule: COc1cccc(OCCCN)c1-c1cc(Nc2cnc(C#N)cn2)n[nH]1 + COC1C(OC(N)=O)C(O)C(Oc2ccc3c(O)c(NC(=O)c4ccc(O)c(CC=C(C)C)c4)c(=O)oc3c2C)OC1(C)C 297

====

system: 699152-130-R-J1-PDC complex spheroid viability; assay: Anticancer human tumor 699152-130-R-J1-PDC cell line growth inhibition [POLQ]; details: second compound 0.316 µM; first compound 0.000316 µM; stronger effect = lower value;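 further: spheroids exposed to agents for 7 days before viability reading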;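 on viability, T/C: percent of DMSO vehicle control viability so 100% = vehicle and 0% = no viable signal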
observable: viability, T/C

Reported viability, T/C, compound CC[C@@]1(O)C(=O)OCc2c1cc1n(c2=O)Cc2cc3c(CN(C)C)c(O)ccc3nc2-1 + Cc1cccc(N(C)C(=O)C2C(O)CCN2c2nc(C)cc(C(F)(F)F)c2C#N)c1 : ____ 101%

Reported viability, T/C, compound Cn1ncnc1[C@H]1c2n[nH]c(=O)c3cc(F)cc(c23)N[C@@H]1c1ccc(F)cc1 + Cc1cccc(N(C)C(=O)C2C(O)CCN2c2nc(C)cc(C(F)(F)F)c2C#N)c1 : ____ 94.8%

Reported viability, T/C, compound CC[C@@]1(O)C(=O)OCc2c1cc1n(c2=O)Cc2cc3c(CN(C)C)c(O)ccc3nc2-1 + Nc1ccc(C#CCN(C(=O)Cc2ncc(C(F)(F)F)cc2C(F)(F)F)c2ccc(F)cc2)nn1 : ____ 99.7%

====

test system: 699152-130-R-J1-PDC complex spheroid viability; test: Anticancer human tumor 699152-130-R-J1-PDC cell line growth inhibition [POLQ]; conditions: second compound 0.0316 µM; first compound 0.316 µM; stronger effect = lower value;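 further: spheroids exposed to agents for 7 days before viability reading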;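 on viability, T/C: percent of DMSO vehicle control viability so 100% = vehicle and 0% = no viable signal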
observable: viability, T/C (%)
Hi! Could you send only the number? It should be in %, unit omitted.

Reported viability, T/C, compound CC1COCCN1c1cc(C2(O)CC3CCC(C2)O3)c2cnn(-c3ccn[nH]3)c2n1 (stereo not drawn) + COC1C(OC(N)=O)C(O)C(Oc2ccc3c(O)c(NC(=O)c4ccc(O)c(CC=C(C)C)c4)c(=O)oc3c2C)OC1(C)C : ____ 67.3

Reported viability, T/C, compound O=c1[nH]cc(F)c(=O)[nH]1 + Cc1cccc(N(C)C(=O)C2C(O)CCN2c2nc(C)cc(C(F)(F)F)c2C#N)c1 : ____ 107

Reported viability, T/C, compound COc1cccc2c1C(=O)c1c(O)c3c(c(O)c1C2=O)CC(O)(C(=O)CO)CC3OC1CC(N)C(O)C(C)O1 (stereo not drawn) + Cc1cccc(N(C)C(=O)C2C(O)CCN2c2nc(C)cc(C(F)(F)F)c2C#N)c1 : ____ 47.5
